compound	melting point
CCOC(=O)CC[C@H](NC(=O)c1ccc(N2CCN(c3c(N)nc(N)nc3CC)CC2)cc1)C(=O)OCC	226 to 228 °C
COc1cc(F)ccc1C(=O)NCCN1CCC(O)(c2ccc(Cl)cc2)CC1	157 °C
Cn1c(C(F)(F)F)cc(=O)n(-c2ccc3snc(CN(C(=O)OC(C)(C)C)S(C)(=O)=O)c3c2)c1=O	109 to 111 °C
CCCCOC(C=Cc1ccc(C(=O)O)cc1)c1ccc2c(c1)C(C)(C)CCC2(C)C (racemic)	78 to 80 °C
CCOC(=O)c1sc(NC(C)=O)c(C(=O)OCC)c1C	130 to 131 °C
CCC(Oc1ccc(C(C)(C)CC)cc1C(C)(C)CC)C(=O)Nc1ccc(Cl)c(NC(=O)CC(=O)C(C)(C)Sc2ccccc2)c1 (configuration not stated)	73 to 75 °C
COc1ccc(C=CC(=O)Nc2cnc3ccc(Cl)cc3c2-c2ccccc2Cl)cc1OC	208 to 209 °C
COc1ccc(CN2CCC(COc3ccc(F)cc3)CC2)cc1	79 to 81 °C
CCOC(=O)Nc1cc(-c2ccccc2)n(-c2ccc(S(N)(=O)=O)cc2)n1	121 to 128 °C
CCCCc1ccc2scc(NC(=O)C(=O)OC)c(=O)c2c1	192 to 194 °C
NC(CSc1nc(NCc2ccc3c(c2)OCO3)cc(-c2ccccc2)n1)=NO	160 to 163 °C
CCOP(=O)(/C=C/c1cn(-c2ccccc2)nc1OCc1ccc(OCc2nc(-c3ccco3)oc2C)c(C(=O)O)c1)OCC	169 to 170 °C
